Origin of the recorded values: the NIST ThermoML archive (doi:10.1021/je900550v)

conditions: 327.4 K; 101.33 kPa; Liquid; Pulse-echo method
attributeMeasured: speed of sound (m/s)
// note: answer is a bare numeric in m/s

Here's what some known entries look like.
CC(C)C(=O)[O-].C[NH2+]CCO [2-hydroxy-N-methylethanaminium isobutyrate] ... 1528.5
C[NH2+]CCO.O=C[O-] [2-hydroxy-N-methylethanaminium formate] ... 1758.5
CCCC(=O)[O-].C[NH2+]CCO [N-methyl-2-hydroxyethylammonium butanoate] ... 1522.9
CCCCC(=O)[O-].C[NH2+]CCO [2-hydroxy-N-methylethanaminium pentanoate] ... 1458.5

# next molecule below
Using the record for CCC(=O)[O-].C[NH2+]CCO [2-hydroxy-N-methylethanaminium propionate] , report its speed of sound. 1603.2
